Across several publications, the following IC50 results were reported for TGFBR2 (Homo sapiens, UniProt P37173).

Record excerpt, results attached:
| molecule | test-target | IC50 |
| --- | --- | --- |
| N#Cc1cnc2ccc(-c3cccnc3-c3cccc(F)n3)nn12 | TGFBR2 (Homo sapiens, UniProt P37173) | > 15000 nM |
| COC(=O)Nc1cc(Nc2nc(-c3cccc(C(F)(F)F)n3)nc3[nH]cnc23)ccn1 | TGFBR2 (Homo sapiens, UniProt P37173) | > 15000 nM |
| Nc1ncc(-c2ccc(CC(=O)N3CCN(C(=O)OCc4ccccc4)CC3)cc2)nc1C(=O)Nc1cnccc1N1CCOCC1 | TGFBR2 (Homo sapiens, UniProt P37173) | < 50 nM |
| NCC1CCc2cc(-c3cnc(N)c(C(=O)Nc4cnccc4N4CCOCC4)n3)ccc2N1 (centres unmarked) | TGFBR2 (Homo sapiens, UniProt P37173) | < 50 nM |
| COCCCNc1ccncc1NC(=O)c1nc(-c2ccc(CCN)cc2)cnc1N | TGFBR2 (Homo sapiens, UniProt P37173) | > 1000 nM |
| NCCc1ccc(-c2cnc(N)c(C(=O)Nc3cncc(Cl)c3N3CCOCC3)n2)cc1 | TGFBR2 (Homo sapiens, UniProt P37173) | < 50 nM |

QUERY: Can you look up IC50 on TGFBR2 (Homo sapiens, UniProt P37173) for Cc1cc(-c2cnc3cc(-c4ccc(C5CNCCN5)cc4)ccn23)c2cc(F)ccc2n1 (centres unmarked) ?
RESULT: 498 nM

QUERY: Can you look up IC50 on TGFBR2 (Homo sapiens, UniProt P37173) for "Nc1ncc(-c2ccc(Cl)cc2)nc1C(=O)Nc1cnccc1N1CCOCC1" ?
RESULT: < 50 nM

QUERY: Can you look up IC50 on TGFBR2 (Homo sapiens, UniProt P37173) for "Nc1ncnc2ccc(-c3cccnc3-c3cccc(C(F)F)n3)cc12" ?
RESULT: > 15000 nM

QUERY: Can you look up IC50 on TGFBR2 (Homo sapiens, UniProt P37173) for "CC(=O)Nc1cc(Nc2nc(-c3cccc(C(F)(F)F)n3)nc3[nH]c(C)nc23)ccn1" ?
RESULT: > 15000 nM

QUERY: Can you look up IC50 on TGFBR2 (Homo sapiens, UniProt P37173) for "COCCN(C)c1ccncc1NC(=O)c1nc(-c2ccc(CCNC(=O)OCc3ccccc3)cc2)cnc1N" ?
RESULT: 50 to 100 nM

QUERY: Can you look up IC50 on TGFBR2 (Homo sapiens, UniProt P37173) for Nc1ncc(-c2ccc3c(c2)CC(O)CC3)nc1C(=O)Nc1cnccc1N1CCOCC1 (centres unmarked) ?
RESULT: < 50 nM
